Task for the reader: assign each of the following compounds its reported HSPA8 mRNA-Seq fold change (relative to Vh).
Tested on: HEK293T-Rex cells
Assay comment: mRNA-Seq transcriptional profiling and geneset analysis in HEK293T-Rex cells
Assay type: cell-based, human
Condition context: HSF1 target gene, 6 h, compounds 10 μM, Tg 1 μM
Return type: number; implicit unit fold.

Query: What does the record list as HSPA8 mRNA-Seq fold change (relative to Vh) for C/C=C(/C)C(=O)O[C@H]1C(C)=C2[C@H]([C@@H]1OC(=O)CCCCCCC)[C@@](C)(OC(C)=O)C[C@H](OC(=O)CCC)[C@@]1(O)[C@H]2OC(=O)[C@@]1(C)O [Tg, thapsigargin, reference compound] ?
Response: 0.3

Query: What does the record list as HSPA8 mRNA-Seq fold change (relative to Vh) for Cc1ccc(O)c(N/C=C/C(=O)c2ccc(F)cc2)c1 ?
Response: 1.5

Query: What does the record list as HSPA8 mRNA-Seq fold change (relative to Vh) for O=[N+]([O-])c1ccc(N/N=C/c2ccccc2O)cc1 ?
Response: 1.3

Query: What does the record list as HSPA8 mRNA-Seq fold change (relative to Vh) for Cc1ccc(O)c(NC(=O)CCc2ccccc2)c1 ?
Response: 1.3

###

Tested on: HEK293T-Rex cells
Assay comment: mRNA-Seq transcriptional profiling and geneset analysis in HEK293T-Rex cells
Format: cell-based, human
Condition context: XBP1s- or ATF6-target gene, 6 h, compounds 10 μM, Tg 1 μM
Observation type: p58IPK mRNA-Seq fold change (relative to Vh)
Dear colleague, please send the value followed by its unit.

Query: What does the record list as p58IPK mRNA-Seq fold change (relative to Vh) for O=[N+]([O-])c1ccc(N/N=C/c2ccccc2O)cc1 [Compound 263] ?
Response: 2.9 fold

Query: What does the record list as p58IPK mRNA-Seq fold change (relative to Vh) for Cc1ccc(O)c(N/C=C/C(=O)c2ccc(F)cc2)c1 [Compound 132] ?
Response: 3.7 fold

Query: What does the record list as p58IPK mRNA-Seq fold change (relative to Vh) for C/C=C(/C)C(=O)O[C@H]1C(C)=C2[C@H]([C@@H]1OC(=O)CCCCCCC)[C@@](C)(OC(C)=O)C[C@H](OC(=O)CCC)[C@@]1(O)[C@H]2OC(=O)[C@@]1(C)O [Tg, thapsigargin, reference compound] ?
Response: 3.9 fold

Query: What does the record list as p58IPK mRNA-Seq fold change (relative to Vh) for Cc1ccc(O)c(NC(=O)CCc2ccccc2)c1 [Compound 147] ?
Response: 1.8 fold

###

System: ERSE-FLuc reporter (ATF6 arm of the UPR)
Assay comment: ERSE-FLuc reporter, 96-well, HEK293T-Rex cells (SAR and S1P inhibition)
Format: cell-based
Condition context: HEK293T-Rex; 10 μM
Observation type: ERSE reporter activity relative to 147

Cc1ccc(O)c(NC(=O)CCc2ccccc2Cl)c1 [RP26] :: increase
Cc1ccc(O)c(NC(=O)CCc2ccccc2F)c1 [RP24] :: increase

###

Task for the reader: assign each of the following compounds its reported SEL1L mRNA-Seq fold change (relative to Vh).
Test system: HEK293T-Rex cells
Assay comment: mRNA-Seq transcriptional profiling and geneset analysis in HEK293T-Rex cells
Assay type: cell-based, human
Condition context: ATF6-selective gene, 6 h, compounds 10 μM, Tg 1 μM
Return type: number; implicit unit fold.

Query: What does the record list as SEL1L mRNA-Seq fold change (relative to Vh) for C/C=C(/C)C(=O)O[C@H]1C(C)=C2[C@H]([C@@H]1OC(=O)CCCCCCC)[C@@](C)(OC(C)=O)C[C@H](OC(=O)CCC)[C@@]1(O)[C@H]2OC(=O)[C@@]1(C)O [Tg, thapsigargin, reference compound] ?
Response: 7.6

Query: What does the record list as SEL1L mRNA-Seq fold change (relative to Vh) for Cc1ccc(O)c(NC(=O)CCc2ccccc2)c1 ?
Response: 2.2

Query: What does the record list as SEL1L mRNA-Seq fold change (relative to Vh) for O=[N+]([O-])c1ccc(N/N=C/c2ccccc2O)cc1 ?
Response: 2.7

Query: What does the record list as SEL1L mRNA-Seq fold change (relative to Vh) for Cc1ccc(O)c(N/C=C/C(=O)c2ccc(F)cc2)c1 ?
Response: 4.9
